target: Cyclin-dependent kinase 2 (Homo sapiens); conditions: Compound concentration 20.0 uM
Description: Thermal Shift Assay. Domain: start/stop: M1-L298
Residues, ends and D or L forms follow the SMILES beside them. *: point of attachment. Cbz = O=C(OCc1ccccc1)*
Collected ΔTm values appear next to each entry.
Write it as a number; the unit °C goes unstated.

compound	ΔTm (°C)
CN1CC[C@@H](Oc2ccc(F)c(-c3nc4c(o3)C(=O)c3ccccc3C4=O)c2Cl)C1	0.38

Request: What ΔTm value was documented for this compound, Cc1cc(-c2ccccc2)cc(C(=O)NNS(=O)(=O)c2ccccc2)c1F ?
Result: -3.62

Request: Next: Cc1[nH]c2c(N3CCO[C@H](CO)C3)c(C#N)c(C(F)(F)F)nc2c1Cl
Result: 1.92

Request: Input CC(C)(Sc1ccncc1-c1ccc(C#N)c2ccccc12)C(=O)O
Result: -0.1

Request: Cool, now NC(=O)c1ccc(Oc2ccc(C(N)=O)cc2)cc1
Result: -0.07

Request: Now this one: CC(C)(C)c1ccc(CN(C(=O)CN(Cc2c(F)c(F)c(F)c(F)c2F)S(=O)(=O)c2ccc(F)cc2)c2ccc(C(=O)NO)cc2)cc1
Result: 9.04

Request: // query: O=CC1CCCN1C(=O)C1CCCN1C(=O)OCc1ccccc1 (stereo not drawn) (Cbz-Pro-Pro-aldehyde; configuration not given here)
Result: -0.15

Request: // same read-out, input: COCCOc1cc(CC2CCN(CCc3ccc4c(c3)C(=O)CCO4)CC2)ccc1Br
Result: 0.15

Request: Moving on to NS(=O)(=O)OC[C@H]1C[C@@H](Nc2ncncc2C(=O)c2ccn(Cc3cccc(Br)c3)n2)C[C@@H]1O
Result: 0.03

---

target: Tyrosine-protein kinase ABL1 (Homo sapiens) (UniProt P00519); conditions: Compound concentration 20.0 uM
Sequence (P00519 whole entry): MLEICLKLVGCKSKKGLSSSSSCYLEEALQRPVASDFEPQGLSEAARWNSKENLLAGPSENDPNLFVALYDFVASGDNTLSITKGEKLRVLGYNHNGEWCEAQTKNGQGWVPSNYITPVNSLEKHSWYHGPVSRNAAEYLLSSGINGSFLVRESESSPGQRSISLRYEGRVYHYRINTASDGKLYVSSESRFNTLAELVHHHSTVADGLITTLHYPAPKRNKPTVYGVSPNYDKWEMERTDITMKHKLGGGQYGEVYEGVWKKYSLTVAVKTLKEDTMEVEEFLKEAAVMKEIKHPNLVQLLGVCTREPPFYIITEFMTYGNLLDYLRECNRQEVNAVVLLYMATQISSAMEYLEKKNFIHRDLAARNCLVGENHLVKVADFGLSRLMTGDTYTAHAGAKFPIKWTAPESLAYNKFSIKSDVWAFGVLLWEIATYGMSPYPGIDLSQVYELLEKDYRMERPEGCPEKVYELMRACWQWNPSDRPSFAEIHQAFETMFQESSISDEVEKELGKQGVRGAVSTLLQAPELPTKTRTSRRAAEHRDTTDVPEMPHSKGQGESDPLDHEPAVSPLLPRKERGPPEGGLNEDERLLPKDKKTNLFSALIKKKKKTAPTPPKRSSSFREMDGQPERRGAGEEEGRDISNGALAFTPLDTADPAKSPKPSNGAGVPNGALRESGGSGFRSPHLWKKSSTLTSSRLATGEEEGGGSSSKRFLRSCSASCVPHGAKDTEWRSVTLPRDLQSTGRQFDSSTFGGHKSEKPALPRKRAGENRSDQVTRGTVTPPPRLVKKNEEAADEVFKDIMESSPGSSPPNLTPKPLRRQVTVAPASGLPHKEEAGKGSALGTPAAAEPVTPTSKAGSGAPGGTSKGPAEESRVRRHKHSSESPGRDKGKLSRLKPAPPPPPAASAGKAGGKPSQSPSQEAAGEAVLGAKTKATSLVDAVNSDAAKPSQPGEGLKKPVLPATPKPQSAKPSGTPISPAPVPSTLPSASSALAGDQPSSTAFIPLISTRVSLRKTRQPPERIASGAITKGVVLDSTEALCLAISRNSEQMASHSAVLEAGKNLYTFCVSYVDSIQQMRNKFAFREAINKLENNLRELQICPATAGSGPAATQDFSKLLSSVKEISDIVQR
Description: Thermal Shift Assay. Domain: start/stop: S229-K512
Non-standard residues stand in square brackets, D forms with d. Residues, ends and D or L forms follow the SMILES beside them. *: point of attachment. Benzoyl(4-tBu) = CC(C)(C)c1ccc(C(=O)*)cc1; Lys(Et2) = CCN(CC)CCCC[C@H](N)C(=O)O
Sorting guide: entries reporting ΔTm beneath 0.3 °C go in the Fulfilled pile, the rest go in the Not fulfilled pile.

compound	class
CCN(CC)CCCC[C@H](NC(=O)[C@H](CC(C)C)NC(=O)[C@H](C)NC(=O)[C@H](Cc1ccccc1)NC(=O)c1ccc(C(C)(C)C)cc1)C(=O)N[C@@H](CO)C(=O)OC ({Benzoyl(4-tBu)}-FAL[Lys(Et2)]S-OMe)	Not fulfilled
CC(=O)N1CCc2c(c(N3CCCc4cc(-c5cnn(C)c5)c(C(F)F)cc43)nn2C2CCOCC2)C1	Not fulfilled
Cc1noc(C)c1-c1cc(Cl)c(Nc2ccccc2C(=O)O)c(Cl)c1	Not fulfilled
O=C(O)/C(S)=C/c1c[nH]c2ccc(F)cc12	Fulfilled
CC(C)N(C(=O)c1cc(F)ccc1Oc1cncnc1N1CC2(CCN(C[C@H]3CC[C@H](NS(C)(=O)=O)CC3)CC2)C1)C(C)C	Not fulfilled
O=C(CCCCCCNC(=O)c1cnc(N(c2ccccc2)c2ccccc2Cl)nc1)NO	Not fulfilled

Let us examine a further case.
Request: Criterion: ΔTm strictly below 0.3 °C. Is it met by CCCN1CCN(c2ccc(C(=O)NC3(C(=O)NCC#N)CCCCC3)cc2)CC1 ?
Result: Fulfilled
